tested on: T1, human CD71 extracellular domain (human, UniProt P02786 89-760, biotinylated)
T1 construct: extracellular domain; also called hCD71; huCD71 ECD
T1 sequence (P02786 other isoform, or with tags, fused parts or gaps): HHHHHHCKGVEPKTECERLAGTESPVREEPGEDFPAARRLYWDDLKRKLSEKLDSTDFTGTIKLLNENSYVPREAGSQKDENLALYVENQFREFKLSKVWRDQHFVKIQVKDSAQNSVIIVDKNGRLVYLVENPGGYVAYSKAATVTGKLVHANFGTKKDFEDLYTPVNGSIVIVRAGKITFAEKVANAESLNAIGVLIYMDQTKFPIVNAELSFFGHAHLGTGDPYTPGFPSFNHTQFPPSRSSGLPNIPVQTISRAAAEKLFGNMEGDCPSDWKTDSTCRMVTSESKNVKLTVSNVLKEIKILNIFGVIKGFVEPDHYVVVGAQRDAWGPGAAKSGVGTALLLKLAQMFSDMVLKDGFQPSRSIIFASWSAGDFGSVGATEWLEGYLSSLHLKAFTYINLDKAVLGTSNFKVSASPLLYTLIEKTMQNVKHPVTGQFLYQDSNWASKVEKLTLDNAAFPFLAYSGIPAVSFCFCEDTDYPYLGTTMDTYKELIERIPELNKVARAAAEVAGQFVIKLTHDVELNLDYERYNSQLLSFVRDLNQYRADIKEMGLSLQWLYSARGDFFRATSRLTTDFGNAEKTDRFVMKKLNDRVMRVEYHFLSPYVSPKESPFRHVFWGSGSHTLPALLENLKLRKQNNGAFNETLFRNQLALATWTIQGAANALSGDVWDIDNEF
measurement protocol: solution ELISA screen, signal ratio to HSA control
quantity kind: hCD71:HSA (ratio)

SEQ ID NO 263 (designed binder, not shown: small tags and cut ends) MLPAPKNLVVSRVTEDSARLSWTAPDAAFDSFYIAYAEPRPDGEAIALVVPGSERSYDLTGLKPGTEYSVLIHGVKGGLLSSPLAANFTT : 24.5

(I) SEQ ID NO 237 (designed binder, not shown: small tags and cut ends) MLPAPKNLVVSRVTEDSARLSWTAPDAAFDSFYIAYAEPRPDGEAIVLAVPGSERSYDLTGLKPGTEYSVLIHGVKGGLLSSPLYASFTT
(II) SEQ ID NO 250 (designed binder, not shown: small tags and cut ends) MLPAPKNLVVSRVTEDSARLSWTAPDAAFDSFYIAYAEPRPDGEAILLRVPGSERSYDLTGLKPGTEYSVLIHGVKGGLLSSPLYAKFTT
Input line: // task: argmin of hCD71:HSA over [ I , II ] Answer by quoting the chosen item's label.
Output line: II
(II: 15 ratio, I: 165 ratio)
